- Test summary: chemical genetic growth profiling, strain panel (AID 1159580);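 also: tested at 20 µM; growth read once vehicle control cultures reached saturation at 30 °C; 1 = growth at the plate median or of vehicle wells; lower values mean less growth of the strain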
- Details: S. cerevisiae deletion strains, growth OD, locus YMR205C, strain PFK2
The whole screen tested about 5,500 compounds, of which about 2,000 (36%) were called active. Another 18% or so got no clear call; they are omitted. Rule as the data show it: active = normalized growth mostly below about 0.91 (no sharp cut-off); inconclusive = no clear call, values can overlap the other calls; inactive = mostly above about 0.92. The list shows a part of the results.
Entry note: the call must match one of Yes for active, No for inactive

Compound | Class assignment
O=C1[O][Bi][O]c2ccccc21 | No

Ask: Answer briefly: the call reported for CC1(C)C(=O)C=C[C@@]2(C)C1C=C[C@]1(C)C2CC[C@@]2(C)[C@H](c3ccoc3)OC(=O)C3OC321 (some centres undefined) in this assay.
Reply: Yes

Ask: Answer briefly: the call reported for OCC(O)C(O)C(O)C(O)C(O)CO (centres undefined) in this assay.
Reply: No

Ask: Answer briefly: the call reported for C=CC1C2=CCOC(=O)C2=COC1OC1OC(CO)C(O)C(O)C1O (centres undefined) in this assay.
Reply: No

Ask: Answer briefly: the call reported for CC1(C)O[C@H]2CC(=O)OC[C@]23[C@H]2CC[C@@]4(C)[C@H](c5ccoc5)OC(=O)[C@H]5O[C@]54[C@]2(C)C(=O)C[C@@H]13 in this assay.
Reply: No

Ask: Answer briefly: the call reported for CCCC(C)(COC(N)=O)COC(=O)NC(C)C (centres undefined) in this assay.
Reply: No

---

- Test summary: chemical genetic growth profiling, strain panel (AID 1159580);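 also: tested at 20 µM; growth read once vehicle control cultures reached saturation at 30 °C; 1 = growth at the plate median or of vehicle wells; lower values mean less growth of the strain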
- Details: S. cerevisiae deletion strains, growth OD, locus YPL055C, strain LGE1, active compounds read low
About 2,000 (36%) of roughly 5,500 compounds were called active. Not shown: some 18% with an inconclusive outcome. The list shows a part of the results.
Readout name: normalized growth
Number only, no unit.

Solved cases (5 shown):
Compound | normalized growth
CCCCCCC(C)OC(=O)COc1ccc(Cl)cc1Cl (stereo unspecified) | 0.94
CC(C)[C@@]1(NC(=O)[C@@H]2C[C@@H]3c4cccc5[nH]cc(c45)C[C@H]3N(C)C2)O[C@@]2(O)[C@@H]3CCCN3C(=O)[C@H](Cc3ccccc3)N2C1=O | 0.91
CCCC(C)(COC(N)=O)COC(=O)NC(C)C (stereo unspecified) | 0.988
CCN1C[C@]2(C)CC[C@H](OC)[C@]34C2[C@H](O)[C@]2(OCO[C@@]25C[C@H](OC)[C@H]2C[C@]3(O)C5[C@H]2O)C14 | 0.987
O=C1c2ccccc2C(=O)N1CNc1ccc(N2CCOCC2)cc1 | 0.861

The value of normalized growth measured for the compound COC(=O)CSc1ncnc2c(C)csc12 turned out to be 0.953

The value of normalized growth measured for the compound CC(C)[N+](C)(CCC(C(N)=O)(c1ccccc1)c1ccccc1)C(C)C turned out to be 0.991

The value of normalized growth measured for the compound COC(=O)CSc1nc2ccc(Cl)cc2s1 turned out to be 0.92

The value of normalized growth measured for the compound CNC(=O)Oc1cccc2c1OC(C)(C)O2 turned out to be 1.03

---

- Test summary: chemical genetic growth profiling, strain panel (AID 1159580);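 also: tested at 20 µM; growth read once vehicle control cultures reached saturation at 30 °C; 1 = growth at the plate median or of vehicle wells; lower values mean less growth of the strain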
- Details: S. cerevisiae deletion strains, growth OD, locus YNL153C, strain GIM3
Hit rate of the full screen: of about 5,500 compounds, about 2,000 (36%) were called active. Roughly 18% stayed inconclusive and do not appear here. Rule as the data show it: active = normalized growth mostly below about 0.91 (no sharp cut-off); inconclusive = no clear call, values can overlap the other calls; inactive = mostly above about 0.92. The list shows a part of the results.
Entry note: the call must match one of active, inactive

Worked set:
Molecule | Class assignment
Cn1c2c(c3c1CCCC3)CCCC2 | active
Cc1cccc(/C=C/c2ccccc2)n1 | inactive
CCCCCCCCCCCCCCCCCC(=O)OC(CC(=O)O)C[N+](C)(C)C (configuration not stated) | active
NNC(=O)c1ccc(O)cc1 | inactive
CC1O[C@@H](Oc2c(-c3ccc(O)c(O)c3)oc3cc(O)cc(O)c3c2=O)[C@H](O)[C@H](O)[C@H]1O (some centres not stated) | inactive

Ask: Answer briefly: the call reported for COc1ccc2c3c1OC1C(O)CC=C4C(C2)N(C)CCC431 (configuration not stated) in this assay.
Reply: inactive

Ask: Answer briefly: the call reported for COc1cc(OC)c2c(=O)c(O)c(-c3ccc(OC)c(OC)c3)oc2c1 in this assay.
Reply: active

Ask: Answer briefly: the call reported for NC(=O)c1ncn([C@@H]2O[C@H](CO)[C@@H](O)[C@H]2O)n1 in this assay.
Reply: inactive

Ask: Answer briefly: the call reported for CCCCCCCCCCCCCCCC(=O)OC(CC(=O)O)C[N+](C)(C)C (configuration not stated) in this assay.
Reply: active

Ask: Answer briefly: the call reported for O=S(=O)(Oc1cc(Cl)cc(Cl)c1)c1cccc(S(=O)(=O)Oc2cc(Cl)cc(Cl)c2)c1 in this assay.
Reply: inactive

Ask: Answer briefly: the call reported for CC1(C)O[C@H]2CC(=O)OC[C@]23[C@H]2CC[C@@]4(C)[C@H](c5ccoc5)OC(=O)[C@H]5O[C@]54[C@]2(C)C(=O)C[C@@H]13 in this assay.
Reply: inactive
